System: SNK-6 (IL-2 2.5 ng/mL)
Measurement notes: relative IC50 (inflection point of fitted viability curve, relative to fitted max inhibition); higher = less sensitive
Test context: 72 h
Each entry belongs to exactly one class, chosen by where its relative IC50 falls: lower range = under 50 nM, middle range = from 50 nM up to 400 nM, upper range = 400 nM and over

Q) # bin lookup: classify CCCc1cc(C)[nH]c(=O)c1CNC(=O)c1cc(-c2ccnc(N3CCN(C)CC3)c2)cc2c1cnn2C(C)C by its relative IC50
A) upper range

Q) # bin lookup: classify CC1(C)CCC(c2ccc(Cl)cc2)=C(CN2CCN(c3ccc(C(=O)NS(=O)(=O)c4ccc(N[C@H](CCN5CCOCC5)CSc5ccccc5)c(S(=O)(=O)C(F)(F)F)c4)cc3)CC2)C1 by its relative IC50
A) lower range

Q) # bin lookup: classify c1ccc(Cn2c(-c3ccc(OC[C@H](C4CCNCC4)n4c(-c5ccccc5)nc5ccccc54)cc3)nc3ccccc32)cc1 by its relative IC50
A) upper range
